- Run description: counter assay for TAg ATPase ADP read-out – biochemical, ADP-Hunter, fluorescence, counter-screen (AID 2501);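 also: purified T antigen ATPase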
- Test settings: series mostly up to 100 µM
The campaign covered roughly 2,200 compounds. About 1,200 (55%) were called active. The limit is not given here; nearly all actives have IC50 up to about 92 µM. The set was probably picked from earlier hits. Some of the results follow.
Outcome codes: 1 (active), -1 (inactive)

| Molecule | Group label |
| --- | --- |
| COc1cc(/C=C2\S/C(=N/S(=O)(=O)c3ccc(C)cc3)NC2=O)c([N+](=O)[O-])cc1OC | -1 |
| COc1cccc(NS(=O)(=O)c2ccc3c(c2)C2C=CCC2C(c2ccc(C(=O)O)cc2)N3)c1 (configuration not stated) | -1 |
| Cc1cc(C(=O)NNC(=O)CN2C(=O)NC(C)(c3ccccc3)C2=O)c(C)o1 (configuration not stated) | -1 |
| CCN(CC)CCNC(=O)CCCCn1c(=S)[nH]c2c([nH]c3ccc(OC)cc32)c1=O | 1 |
| CCOC(=O)c1c(C)[nH]c(C)c1C(=O)CSc1nc2ccccc2[nH]1 | -1 |
| CNC[C@@H](C)NC[C@@H](Cc1ccccc1)NCCc1ccccc1 | -1 |
| Cc1ccc2c(cnn2C(=O)CCC(=O)NCc2ccccc2Cl)c1 | -1 |
| COc1ccc(NC(=O)N2CCCc3cc(C)ccc32)c(OC)c1 | -1 |
| CC1(c2ccccc2)NC(=O)N(CC(=O)Nc2ccc(S(=O)(=O)Nc3ncccn3)cc2)C1=O (configuration not stated) | -1 |
| COc1cc2c(cc1OC)-c1cc(Nc3ccc(N(C)C)cc3)nc(=O)n1CC2 | 1 |
| O=C(O)CSCC(=O)Nc1ccc(-c2nc3ccccc3s2)cc1 | -1 |
| O=C(O)c1ccc(NS(=O)(=O)c2ccc3c(c2)C2C=CCC2C(c2ccccc2F)N3)cc1 (configuration not stated) | -1 |
| Cc1ccc(NC(=O)CSc2nc3ccccc3c(=O)n2CCCC(=O)NCCCN2CCOCC2)cc1C | -1 |
| CCN(CC)C(=S)SSC(=S)N(CC)CC | -1 |
| O=C(c1nnsc1S(=O)c1ccc(Cl)cc1)N1CCOCC1 (configuration not stated) | -1 |
| COc1cc(/C(C)=N/NC(=O)CSc2nnc(C)s2)ccc1O | 1 |
| O=c1oc2cc(O)ccc2s1 | 1 |
| Cc1ccsc1C(=O)NCc1ccccc1Cl | 1 |
| Cc1csc(N/N=C/c2ccc(O)c([N+](=O)[O-])c2)n1 | 1 |
| CCCC(=O)N=c1sc2c(OC)ccc(OC)c2n1C | -1 |
| Oc1cnn(-c2ccccc2)c1 | 1 |
| O=C(O)c1cc(S(=O)(=O)Nc2ccc3oc(=O)sc3c2)ccc1O | -1 |

====

- Run description: counter assay for TAg ATPase ADP read-out – biochemical, ADP-Hunter, fluorescence, counter-screen (AID 2501);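 also: purified T antigen ATPase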
- Test settings: series mostly up to 100 µM
Out of some 2,200 compounds screened, about 1,200 (55%) were called active. No cut-off is given here; in the data, nearly all actives have IC50 up to about 92 µM. So high a share suggests a set chosen from earlier hits. The list shows a part of the results.
Outcome codes: 1 (yes) for active, 0 (no) for inactive

| Compound | Group label |
| --- | --- |
| O/N=C(\c1ccc2c(c1)OCCO2)C1CCCCC1 | 0 (no) |
| Nc1ccc(Nc2ccccc2)c(S(=O)(=O)O)c1 | 1 (yes) |
| CCOC(=O)C1(CCc2ccccc2)CCN(C(=O)CCc2cnn(C)c2)CC1 | 0 (no) |
| CCOC(=O)C1(Cc2ccc(Cl)cc2)CCN(C(=O)CCc2ccncc2)CC1 | 0 (no) |
| Cc1coc2c(O)cc3c(c12)OC1(N2CCCCC2)C(=O)NCCCC31 (centres undefined) | 0 (no) |
| C=CCn1c(SCC(=O)NCC2CCCO2)nc2scc(-c3ccco3)c2c1=O (centres undefined) | 0 (no) |
| CCOC(=O)C1(Cc2ccccc2)CCN(Cc2cnn(C(C)C)c2)CC1 | 1 (yes) |
| C=CCn1c(=S)[nH]c2scc(-c3ccco3)c2c1=O | 1 (yes) |
| Nc1cc(C(=O)O)ccc1Nc1ccccc1 | 1 (yes) |
| O=C(Nc1nc(-c2ccco2)c(-c2ccco2)s1)c1ccco1 | 0 (no) |
| COc1ccc(-n2c(SCC(=O)Nc3ccc(Cl)cc3)nc(O)c(Cc3ccccc3)c2=O)cc1 | 0 (no) |
| Cc1cs/c(=N\N=C\c2ccc(O)cc2)n1Cc1ccco1 | 1 (yes) |
| O=S(=O)(O)c1cccc2cccc(Nc3ccccc3)c12 | 1 (yes) |
| COc1cc(Cn2c(-c3ccc(O)c(OC)c3)nc3ccccc32)ccc1O | 1 (yes) |
| Oc1ccc2ccccc2c1N=Nc1ccccc1F | 1 (yes) |
| COc1ccc(CCNC(=O)CSc2nncs2)cc1 | 0 (no) |
| CC(=O)Nc1sc(N/N=C\c2ccco2)nc1-c1cccs1 | 1 (yes) |
| CC(C)CN(C)C(=O)CCc1nnc(Cc2cccc(C(F)(F)F)c2)o1 | 0 (no) |
| COC(=O)CSc1nnc(CNc2ccc(OC)cc2)n1C | 1 (yes) |
| O=S(=O)(Nc1c(O)ccc2ccccc12)c1ccc(F)cc1 | 0 (no) |
| Cc1ccc(C)n1-c1cccc(C(=O)O)c1 | 0 (no) |
| O=C1OCC/C1=C\c1ccc(O)cc1 | 1 (yes) |
| COc1ccc(CCN(C)Cc2nc(Cc3ccc(OC)c(OC)c3)no2)cc1OC | 0 (no) |
| CC1=C(C)CS(=O)N(S(=O)(=O)c2ccccc2)C1 (centres undefined) | 0 (no) |
